biological target: Myeloperoxidase (MPO) (Homo sapiens, UniProt P05164); experiment: MPO fluorescence stopped flow assay; details: 2 step model, Dynafit 3 model discrimination
Sequence (P05164 165-273 limits assumed): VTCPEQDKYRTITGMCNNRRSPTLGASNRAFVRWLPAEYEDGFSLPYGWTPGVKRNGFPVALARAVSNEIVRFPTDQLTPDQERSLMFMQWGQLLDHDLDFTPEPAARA
Sequence (P05164 279-745 limits assumed): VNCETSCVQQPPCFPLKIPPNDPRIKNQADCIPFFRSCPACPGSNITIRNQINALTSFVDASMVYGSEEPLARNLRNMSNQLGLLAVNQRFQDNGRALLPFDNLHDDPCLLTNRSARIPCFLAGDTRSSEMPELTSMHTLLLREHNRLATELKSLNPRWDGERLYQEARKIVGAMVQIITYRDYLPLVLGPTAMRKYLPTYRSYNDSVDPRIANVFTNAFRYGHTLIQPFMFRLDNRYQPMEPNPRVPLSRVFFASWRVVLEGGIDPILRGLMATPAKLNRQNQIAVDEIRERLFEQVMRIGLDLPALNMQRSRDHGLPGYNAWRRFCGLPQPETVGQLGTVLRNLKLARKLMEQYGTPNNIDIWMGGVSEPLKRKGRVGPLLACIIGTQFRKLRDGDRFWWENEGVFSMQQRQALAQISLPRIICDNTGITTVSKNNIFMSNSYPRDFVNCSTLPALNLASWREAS
Hi! Could you tag entries with Akaike weight below 0.1 as yes (1), and those at or above as no (0)? Much appreciated.

molecule	category
NNC(=O)c1ccc(C(F)(F)F)cc1	yes (1)
NNC(=O)c1ccccc1N [2-ABAH, 2-aminobenzoic acid hydrazide]	no (0)
NNC(=O)c1ccncc1 [Isoniazid, isonicotinylhydrazine, reference compound]	no (0)
[N-]=[N+]=[N-].[Na+] [NaN3, sodium azide, reference compound]	no (0)
NNC(=O)c1ccccc1 [BAH, benzoic acid hydrazide]	yes (1)
NNC(=O)c1ccc(F)cc1 [4-FBAH, 4-fluorobenzoic acid hydrazide]	yes (1)

====

target: UniProtKB P05164; test: MPO fluorescence stopped flow assay; conditions: Ki, Ki = k−3/k+3, DynaFit 3
metric_name: Ki (nM)

compound	metric_name	measurement_unit	quantitative_result
NNC(=O)c1ccc([N+](=O)[O-])cc1 [4-NBAH, 4-nitrobenzoic acid hydrazide]	Ki	nM	3700
CN(C)c1cccc(C(=O)NN)c1 [3-DMABAH, 3-(dimethylamino) benzoic acid hydrazide]	Ki	nM	560
NNC(=O)c1ccncc1 [Isoniazid, isonicotinylhydrazine, reference compound]	Ki	nM	10000
NNC(=O)c1ccccc1 [BAH, benzoic acid hydrazide]	Ki	nM	690
NNC(=O)c1ccc(C(F)(F)F)cc1	Ki	nM	3080
NNC(=O)c1ccccc1N [2-ABAH, 2-aminobenzoic acid hydrazide]	Ki	nM	260
NNC(=O)c1ccc(F)cc1 [4-FBAH, 4-fluorobenzoic acid hydrazide]	Ki	nM	830

====

Form field: ΔAICc (one value per entry).
target: Myeloperoxidase (MPO) (Homo sapiens); assay: MPO fluorescence stopped flow assay; details: 1 step model, Dynafit 3 model discrimination

compound	experimental_target	ΔAICc
NNC(=O)c1ccccc1 [BAH, benzoic acid hydrazide]	Myeloperoxidase (MPO) (Homo sapiens)	0
NNC(=O)c1ccncc1 [Isoniazid, isonicotinylhydrazine, reference compound]	Myeloperoxidase (MPO) (Homo sapiens)	0
NNC(=O)c1ccc(F)cc1 [4-FBAH, 4-fluorobenzoic acid hydrazide]	Myeloperoxidase (MPO) (Homo sapiens)	0
NNC(=O)c1ccccc1N [2-ABAH, 2-aminobenzoic acid hydrazide]	Myeloperoxidase (MPO) (Homo sapiens)	8.9
[N-]=[N+]=[N-].[Na+] [NaN3, sodium azide, reference compound]	Myeloperoxidase (MPO) (Homo sapiens)	0
NNC(=O)c1ccc(C(F)(F)F)cc1	Myeloperoxidase (MPO) (Homo sapiens)	0

====

target: Myeloperoxidase (MPO) (Homo sapiens, UniProt P05164); experiment: MPO fluorescence stopped flow assay; details: 1 step model, Dynafit 3 model discrimination
Form field: Akaike weight (one value per entry).

molecule	experimental_target	Akaike weight
NNC(=O)c1ccc(C(F)(F)F)cc1	Myeloperoxidase (MPO) (Homo sapiens, UniProt P05164)	0.909
NNC(=O)c1ccncc1 [Isoniazid, isonicotinylhydrazine, reference compound]	Myeloperoxidase (MPO) (Homo sapiens, UniProt P05164)	0.8857
NNC(=O)c1ccccc1N [2-ABAH, 2-aminobenzoic acid hydrazide]	Myeloperoxidase (MPO) (Homo sapiens, UniProt P05164)	0.01127
NNC(=O)c1ccccc1 [BAH, benzoic acid hydrazide]	Myeloperoxidase (MPO) (Homo sapiens, UniProt P05164)	0.9969
NNC(=O)c1ccc(F)cc1 [4-FBAH, 4-fluorobenzoic acid hydrazide]	Myeloperoxidase (MPO) (Homo sapiens, UniProt P05164)	0.9196
[N-]=[N+]=[N-].[Na+] [NaN3, sodium azide, reference compound]	Myeloperoxidase (MPO) (Homo sapiens, UniProt P05164)	0.8814

====

target: Myeloperoxidase (MPO) (Homo sapiens, UniProt P05164); experiment: MPO fluorescence stopped flow assay; conditions: 1 or 2-step slow tight-binding fit, DynaFit 3; same fixed constants
Form field: k−3 (one value per entry).
metric_name: k−3 (s⁻¹)

molecule	experimental_target	measurement_unit	quantitative_result
NNC(=O)c1ccccc1N [2-ABAH, 2-aminobenzoic acid hydrazide]	Myeloperoxidase (MPO) (Homo sapiens, UniProt P05164)	s⁻¹	0.026
NNC(=O)c1ccncc1 [Isoniazid, isonicotinylhydrazine, reference compound]	Myeloperoxidase (MPO) (Homo sapiens, UniProt P05164)	s⁻¹	0.011
[N-]=[N+]=[N-].[Na+] [NaN3, sodium azide, reference compound]	Myeloperoxidase (MPO) (Homo sapiens, UniProt P05164)	s⁻¹	0.156
NNC(=O)c1ccc(F)cc1 [4-FBAH, 4-fluorobenzoic acid hydrazide]	Myeloperoxidase (MPO) (Homo sapiens, UniProt P05164)	s⁻¹	0.0062
NNC(=O)c1ccc(C(F)(F)F)cc1 [4-TFMBAH]	Myeloperoxidase (MPO) (Homo sapiens, UniProt P05164)	s⁻¹	0.004

====

target: Myeloperoxidase (MPO) (Homo sapiens, UniProt P05164); experiment: MPO fluorescence stopped flow assay; settings: Ki* (overall inhibition constant, two-step model), two-step slow tight-binding model, Eq. 9
pKi: −log10 of the molar value.
metric_name: pKi

molecule	metric_name	quantitative_result
NNC(=O)c1ccccc1N [2-ABAH, 2-aminobenzoic acid hydrazide]	pKi	6.80

====

target: UniProtKB P05164; experiment: MPO fluorescence stopped flow assay; details: 2 step model, Dynafit 3 model discrimination
Hi! Could you tag entries with ΔAICc below 5 as 1, and those at or above as -1? Much appreciated.

compound	category
NNC(=O)c1ccccc1N [2-ABAH, 2-aminobenzoic acid hydrazide]	1
NNC(=O)c1ccccc1 [BAH, benzoic acid hydrazide]	-1
NNC(=O)c1ccncc1 [Isoniazid, isonicotinylhydrazine, reference compound]	1
[N-]=[N+]=[N-].[Na+] [NaN3, sodium azide, reference compound]	1
NNC(=O)c1ccc(C(F)(F)F)cc1 [4-TFMBAH]	1

# credit: paper PMC4336777
